Biological target: Orexin receptor type 2 (Homo sapiens)
Sequence (O43614 whole entry): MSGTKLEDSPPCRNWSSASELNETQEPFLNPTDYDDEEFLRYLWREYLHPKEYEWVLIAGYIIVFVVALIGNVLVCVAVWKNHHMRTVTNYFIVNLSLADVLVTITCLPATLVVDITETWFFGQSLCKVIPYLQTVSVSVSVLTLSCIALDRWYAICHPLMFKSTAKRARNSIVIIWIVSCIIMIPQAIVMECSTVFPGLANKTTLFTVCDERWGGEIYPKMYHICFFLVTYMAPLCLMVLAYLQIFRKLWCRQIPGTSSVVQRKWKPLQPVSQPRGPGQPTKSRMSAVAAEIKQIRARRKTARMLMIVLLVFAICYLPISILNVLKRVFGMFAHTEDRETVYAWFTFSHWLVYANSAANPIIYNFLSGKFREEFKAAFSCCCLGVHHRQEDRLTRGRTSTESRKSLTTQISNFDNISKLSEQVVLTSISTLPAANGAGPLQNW
Assay: Agonist activity at OX2R (unknown origin)
parameterMeasured: EC50 (µM)
Hi! Could you send only the number? It should be in µM, unit omitted.

INPUT: State the recorded EC50 for this entry: COc1ccc(-c2cccc(C(=O)N(C)C)c2)cc1S(=O)(=O)Nc1ccc2c(c1)C(N(C)C(=O)Cc1cccc(O)c1)CCC2 (stereo not given)
OUTPUT: 0.057

INPUT: State the recorded EC50 for this entry: CCCCC(=O)N(C)C1CCCc2ccc(NS(=O)(=O)c3cc(-c4cccc(C(=O)N(C)C)c4)ccc3OC)cc21 (stereo not given)
OUTPUT: 1.92

INPUT: State the recorded EC50 for this entry: COc1cccc(CC(=O)NC2CCCc3ccc(NS(=O)(=O)c4cc(-c5cccc(C(=O)N(C)C)c5)ccc4OC)cc32)c1 (stereo not given)
OUTPUT: 0.0266

INPUT: State the recorded EC50 for this entry: `COc1cccc(CC(=O)N(C)c2cccc3ccc(NS(=O)(=O)c4cc(-c5cccc(C(=O)N(C)C)c5)ccc4OC)cc23)c1`
OUTPUT: 0.224
